src = ChEMBL document CHEMBL3352652

- Test system: RAW264.7
- method.notes: Inhibition of LPS-induced NO production in mouse RAW264.7 cells compound preincubated for 1 hr before LPS treatment by Griess reaction
- Format: functional, cell-based
quantity: IC50 (µM)

Fill in the recorded IC50 for this molecule, with RAW264.7 as test system: `CC1(C)CC[C@]2(C(=O)NCc3ccccc3)CC[C@]3(C)C(=CC[C@@H]4[C@@]5(C)Cc6c([nH]c7ccccc67)C(C)(C)[C@@H]5CC[C@]43C)[C@@H]2C1`
24.1

a: COC(=O)[C@]12CCC(C)(C)C[C@H]1C1=CC[C@@H]3[C@@]4(C)CCC(=O)C(C)(C)[C@@H]4CC[C@@]3(C)[C@]1(C)CC2
b: CNC(=O)[C@]12CCC(C)(C)C[C@H]1C1=CC[C@@H]3[C@@]4(C)Cc5c([nH]c6ccccc56)C(C)(C)[C@@H]4CC[C@@]3(C)[C@]1(C)CC2
Just curious, which one has the larger IC50 reading, a or b ? Answer with the label corresponding to your selection.
a
(a: 31.7 µM, b: 4.75 µM)
